Please provide measured z-score for the entries that follow.
# protocol-text: adipocyte viability effects, profiling panel, cell-based, 3T3-L1 adipocytes, calcein-AM fluorescence, 48 h, basal (AID 1163); also: test concentration not given here
# test-parameters: 3T3-L1 adipocytes viability, higher = more signal

Prompt line: Need z-score of CC(C)(C)OC(=O)CC[C@@]1(C(=O)NCCN2CCOCC2)N=C(c2ccc(OCCCO)cc2)O[C@@H]1c1ccccc1 , thanks.
Response line: 0.571

Prompt line: Endpoint output: z-score of COC(=O)[C@@]1(Cc2ccc(F)cc2)[C@H]2c3cc(C(=O)N4CCCC4)n(Cc4cccc5ccccc45)c3C[C@H]2CN1C(=O)c1ccccc1 . Value?
Response line: 0.42

Prompt line: Look up z-score: CCOC(=O)C[C@H]1[C@H](OC(=O)c2ccc(-c3ccccc3)cc2)[C@@H](NC(=O)c2ccc3ccccc3c2)c2cc(OCCCO)ccc2N1C(=O)Cc1ccc(OC)cc1
Response line: 0.965

Prompt line: Value lookup for z-score; key = COc1ccc(C#Cc2ccc3c(c2)[C@]2(C(=O)N3)[C@H](c3ccc(O)cc3)N3[C@H](c4ccccc4)[C@H](c4ccccc4)OC(=O)[C@H]3[C@@H]2C(=O)N2CCCCCCC2)cc1
Response line: 1.01

Prompt line: Can you share its z-score? I mean this compound: C=C[C@H](C)[C@@H](O)c1ccc(O)c2ccccc12
Response line: -0.69

Prompt line: Which measured z-score value corresponds to COc1c(C)cc(-c2cc3c(c(-c4ccc(Oc5ccccc5)cc4)n2)[Si](C(C)C)(C(C)C)OC3)cc1C ?
Response line: -0.616

Prompt line: Which value of z-score has been reported for CC(=O)Nc1cc(Br)ccc1C(=O)O in the records?
Response line: 0.747

Prompt line: # z-score lookup, item COc1cccc(C(=O)O[C@H]2CC[C@]3(C)C4=C(CCC3C2(C)C)[C@]2(C)CC[C@H]([C@H](C)CCCC(C)C)[C@@]2(C)CC4)c1 (some centres not stated)
Response line: 0.146

Prompt line: Would you mind telling me what z-score value was observed for CC(C)=CCCC(C)=CC(O)C1C=CC2C(=O)N(c3ccccc3)C(=O)C2N1Nc1ccccc1 (configuration not stated) ?
Response line: -1.34

Prompt line: Would you mind telling me what z-score value was observed for [N-]=[N+]=NCc1ccccc1C[C@]1(C(=O)NCCN2CCOCC2)N=C(c2ccc(OCCCO)cc2)O[C@H]1c1ccccc1N=[N+]=[N-] ?
Response line: 0.233

Prompt line: Record request: z-score value, item CC(C)C(=C=CC[C@@H](O)c1ccccc1OCCO)C[C@@H](O)c1ccccn1
Response line: 0.0388

Prompt line: State the recorded z-score for this entry: COCCOC(=O)N1C(=O)[C@@]2(c3ccccc31)[C@H](C(=O)Nc1nc3ccccc3s1)[C@H]1C(=O)O[C@H](c3ccccc3)[C@H](c3ccccc3)N1[C@@H]2c1ccc(OCCO)cc1
Response line: 1.73

Prompt line: Dear colleague, I am looking for the recorded z-score of the following compound: COCCOC(=O)N1C(=O)[C@@]2(c3cc(C#CCNC(N)=O)ccc31)[C@H](c1ccccc1OCCO)N1[C@H](c3ccccc3)[C@H](c3ccccc3)OC(=O)[C@H]1[C@@H]2C(N)=O
Response line: -0.131

Prompt line: Report z-score for CC(C)CNC(=O)[C@@]1(c2ccc([N+](=O)[O-])cc2)CC(=O)N(CC23CC4CC(CC(C4)C2)C3)[C@@H]1c1ccc(CO)cc1I please.
Response line: 0.604

Prompt line: Which z-score reading was recorded for the compound O=C(CCN1CCOCC1)c1cccc(O)c1 ?
Response line: 0.75

Prompt line: Would you mind telling me what z-score value was observed for COCCOC(=O)N1C(=O)[C@@]2(c3cc(C#CCNC(N)=O)ccc31)[C@H](C(=O)N1CCN(c3ncccn3)CC1)[C@H]1C(=O)O[C@H](c3ccccc3)[C@H](c3ccccc3)N1[C@@H]2c1ccccc1OCCO ?
Response line: 1.24

Prompt line: Fill in the blank: the reported z-score of [N-]=[N+]=Nc1ccccc1C[C@]1(C(=O)NCCN2CCOCC2)N=C(c2ccc(OCCCO)cc2)O[C@H]1c1ccccc1 is ____.
Response line: 0.0937

Prompt line: // returns reported z-score for input C=CCC(OC(C)=O)[C@@H]1[C@@H](N(Cc2ccc(-c3ccccc3)cc2)C(=O)Cc2ccc(OC)cc2)c2cc(OCCCO)ccc2N1C(=O)c1ccc2ccccc2n1 (some centres not stated)
Response line: 0.273

Prompt line: Any idea what its z-score is? The compound is O=C1OCC=C[C@H]2OC34C=CCN(c5ccc(Cl)cc5)C(=O)[C@H]3N(CCCCCCO)C(=O)[C@@H]4[C@@H]12 (some centres not stated)
Response line: -0.122

Prompt line: Data request, read-out z-score, for CCCCCN1CC=CC23O[C@@H]4C=CCOC(=O)[C@@H]4[C@H]2C(=O)N(CCCO)[C@@H]3C1=O (some centres not stated)
Response line: 2.21

Prompt line: State the recorded z-score for this entry: Cc1ccc(S[C@]2(C(=O)NCC(C)C)CC(=O)N(Cc3ccccc3Cl)[C@@H]2c2ccc(CO)cc2)cc1
Response line: 0.114

Prompt line: Looking for the measured z-score of COCCOC(=O)N1C(=O)[C@@]2(c3cc(C#CCNC(N)=O)ccc31)[C@H](c1ccc(O)cc1)N1[C@H](c3ccccc3)[C@H](c3ccccc3)OC(=O)[C@H]1[C@@H]2C(=O)NC[C@H](O)c1ccccc1 , can you help?
Response line: -0.202
